The following molecules are shown together with reported concentration at 5 min values.
assay: Drug uptake in cynomolgus monkey serum at 5 mg/kg, iv after 5 mins; type: ADME, organism-based, Macaca fascicularis; set-up: dose 5 mg/kg, route intravenous; details: read-out: Drug uptake
Give the value, in units of ng/mL, as a plain number.

Answered cases to consult:
Suppose we examine the molecule COc1c(N2C[C@@H](N)C3(CC3)C2)c(F)cc2c(=O)c(C(=O)O)cn([C@@H]3C[C@@H]3F)c12.Cl.O ; what concentration at 5 min value has been reported?
4750

Suppose we examine the molecule COc1c(N2CC3(CC3)[C@](C)(N)C2)c(F)cc2c(=O)c(C(=O)O)cn([C@@H]3C[C@@H]3F)c12 ; what concentration at 5 min value has been reported?
3660

New cases:
Suppose we examine the molecule COc1c(N2C[C@@H]3CCCN[C@@H]3C2)c(F)cc2c(=O)c(C(=O)O)cn(C3CC3)c12.Cl.O [MOXIFLOXACIN HYDROCHLORIDE HYDRATE] ; what concentration at 5 min value has been reported?
2360

* * *

test system: Streptococcus pyogenes; assay: Antibacterial activity against Streptococcus pyogenes G-36 after 18 hrs by microbroth dilution method; format: functional; settings: G-36, 18 h
readoutName: MIC (µg/mL)
Give the value, in units of µg/mL, as a plain number.

Suppose we examine the compound COc1c(N2CC3(CC3)[C@](C)(N)C2)c(F)cc2c(=O)c(C(=O)O)cn([C@@H]3C[C@@H]3F)c12 ; what MIC value has been reported?
0.2

Suppose we examine the compound COc1c(N2CC(C)(N)C3(CC3)C2)c(F)cc2c(=O)c(C(=O)O)cn([C@@H]3C[C@@H]3F)c12 (stereo partly specified) ; what MIC value has been reported?
0.78

Suppose we examine the compound COc1c(N2C[C@@H](N)C3(CC3)C2)c(F)cc2c(=O)c(C(=O)O)cn([C@@H]3C[C@@H]3F)c12.Cl.O ; what MIC value has been reported?
0.05

New cases:
Suppose we examine the compound O=C(O)c1cn(C2CC2)c2cc(N3CCNCC3)c(F)cc2c1=O ; what MIC value has been reported?
1.56

Suppose we examine the compound C[C@H]1COc2c(N3CCN(C)CC3)c(F)cc3c(=O)c(C(=O)O)cn1c23.C[C@H]1COc2c(N3CCN(C)CC3)c(F)cc3c(=O)c(C(=O)O)cn1c23.O ; what MIC value has been reported?
0.78

Suppose we examine the compound COc1c(N2C[C@@H]3CCCN[C@@H]3C2)c(F)cc2c(=O)c(C(=O)O)cn(C3CC3)c12 ; what MIC value has been reported?
0.2

* * *

assay: AUC (0 to 8 hrs) in Crj:CD rat liver at 5 mg/kg, po; format: ADME, organism-based; design: time < 8 hr, dose 5 mg/kg, route oral
The following compounds are shown together with reported AUC(0-t) at 8 h values.
Quick note: number first, unit second.

Answered cases to consult:
Suppose we examine the compound C[C@H]1COc2c(N3CCN(C)CC3)c(F)cc3c(=O)c(C(=O)O)cn1c23.C[C@H]1COc2c(N3CCN(C)CC3)c(F)cc3c(=O)c(C(=O)O)cn1c23.O [LEVOFLOXACIN] ; what AUC(0-t) at 8 h value has been reported?
16.4 µg·h/mL

Suppose we examine the compound COc1c(N2CC3(CC3)[C@](C)(N)C2)c(F)cc2c(=O)c(C(=O)O)cn([C@@H]3C[C@@H]3F)c12 ; what AUC(0-t) at 8 h value has been reported?
32.1 µg·h/mL

Suppose we examine the compound COc1c(N2C[C@@H](N)C3(CC3)C2)c(F)cc2c(=O)c(C(=O)O)cn([C@@H]3C[C@@H]3F)c12.Cl.O ; what AUC(0-t) at 8 h value has been reported?
15 µg·h/mL

New cases:
Suppose we examine the compound COc1c(N2C[C@@H]3CCCN[C@@H]3C2)c(F)cc2c(=O)c(C(=O)O)cn(C3CC3)c12.Cl.O [MOXIFLOXACIN HYDROCHLORIDE HYDRATE] ; what AUC(0-t) at 8 h value has been reported?
24.5 µg·h/mL

* * *

assay: Drug recovery in cynomolgus monkey urine at 10 mg/kg, iv after 24 hrs; type: ADME, organism-based, Macaca fascicularis; design: dose 10 mg/kg, route intravenous; settings: read-out: Drug recovery
readoutName: dose excreted at 24 h (%)
Give the value, in units of %, as a plain number.

Suppose we examine the compound C[C@H]1COc2c(N3CCN(C)CC3)c(F)cc3c(=O)c(C(=O)O)cn1c23.C[C@H]1COc2c(N3CCN(C)CC3)c(F)cc3c(=O)c(C(=O)O)cn1c23.O [LEVOFLOXACIN] ; what dose excreted at 24 h value has been reported?
80.7

* * *

assay: AUC (0 to 24 hrs) in cynomolgus monkey serum at 5 mg/kg, po; assay type: ADME, organism-based, Macaca fascicularis, Plasma; set-up: time < 24 hr, dose 5 mg/kg, route oral
The following compounds are shown together with reported AUC(0-t) at 24 h values.
Give the value, in units of ng·h/mL, as a plain number.

Answered cases to consult:
Suppose we examine the compound COc1c(N2C[C@@H](N)C3(CC3)C2)c(F)cc2c(=O)c(C(=O)O)cn([C@@H]3C[C@@H]3F)c12.Cl.O ; what AUC(0-t) at 24 h value has been reported?
9450

Suppose we examine the compound COc1c(N2C[C@@H]3CCCN[C@@H]3C2)c(F)cc2c(=O)c(C(=O)O)cn(C3CC3)c12.Cl.O [MOXIFLOXACIN HYDROCHLORIDE HYDRATE] ; what AUC(0-t) at 24 h value has been reported?
6630

New cases:
Suppose we examine the compound C[C@H]1COc2c(N3CCN(C)CC3)c(F)cc3c(=O)c(C(=O)O)cn1c23.C[C@H]1COc2c(N3CCN(C)CC3)c(F)cc3c(=O)c(C(=O)O)cn1c23.O ; what AUC(0-t) at 24 h value has been reported?
15200

Suppose we examine the compound COc1c(N2CC3(CC3)[C@](C)(N)C2)c(F)cc2c(=O)c(C(=O)O)cn([C@@H]3C[C@@H]3F)c12 ; what AUC(0-t) at 24 h value has been reported?
16900

* * *

test: Cmax in Crj:CD rat serum at 5 mg/kg, po; type: ADME, organism-based; parameters: dose 5 mg/kg, route oral
The following compounds are shown together with reported Cmax values.
Give the value, in units of ng/mL, as a plain number.

Answered cases to consult:
Suppose we examine the compound COc1c(N2CC3(CC3)[C@](C)(N)C2)c(F)cc2c(=O)c(C(=O)O)cn([C@@H]3C[C@@H]3F)c12 ; what Cmax value has been reported?
1220

Suppose we examine the compound C[C@H]1COc2c(N3CCN(C)CC3)c(F)cc3c(=O)c(C(=O)O)cn1c23.C[C@H]1COc2c(N3CCN(C)CC3)c(F)cc3c(=O)c(C(=O)O)cn1c23.O ; what Cmax value has been reported?
1470

Suppose we examine the compound COc1c(N2C[C@@H]3CCCN[C@@H]3C2)c(F)cc2c(=O)c(C(=O)O)cn(C3CC3)c12.Cl.O [MOXIFLOXACIN HYDROCHLORIDE HYDRATE] ; what Cmax value has been reported?
1490

New cases:
Suppose we examine the compound COc1c(N2C[C@@H](N)C3(CC3)C2)c(F)cc2c(=O)c(C(=O)O)cn([C@@H]3C[C@@H]3F)c12.Cl.O ; what Cmax value has been reported?
816

* * *

test system: Streptococcus pneumoniae; experiment: Antibacterial activity against levofloxacin-intermediate and levofloxacin-resistant Streptococcus pneumoniae after 18 hrs by microbroth dilution method; type: functional
readoutName: MIC50

Please tell me: MIC50 of CC[C@H]1OC(=O)[C@H](C)[C@@H](O[C@H]2C[C@@](C)(OC)[C@@H](O)[C@H](C)O2)[C@H](C)[C@@H](O[C@@H]2O[C@H](C)C[C@H](N(C)C)[C@H]2O)[C@](C)(OC)C[C@@H](C)C(=O)[C@H](C)[C@@H](O)[C@]1(C)O , system Streptococcus pneumoniae?
> 32 µg/mL

New cases:
Please tell me: MIC50 of COc1c(N2CC3(CC3)[C@](C)(N)C2)c(F)cc2c(=O)c(C(=O)O)cn([C@@H]3C[C@@H]3F)c12 , system Streptococcus pneumoniae?
1 µg/mL

Please tell me: MIC50 of CC1(C)S[C@@H]2[C@H](NC(=O)Cc3ccccc3)C(=O)N2[C@H]1C(=O)O , system Streptococcus pneumoniae?
0.06 µg/mL

Please tell me: MIC50 of C[C@H]1COc2c(N3CCN(C)CC3)c(F)cc3c(=O)c(C(=O)O)cn1c23.C[C@H]1COc2c(N3CCN(C)CC3)c(F)cc3c(=O)c(C(=O)O)cn1c23.O , system Streptococcus pneumoniae?
8 µg/mL

Please tell me: MIC50 of CC[C@H]1OC(=O)[C@H](C)[C@@H](O[C@H]2C[C@@](C)(OC)[C@@H](O)[C@H](C)O2)[C@H](C)[C@@H](O[C@@H]2O[C@H](C)C[C@H](N(C)C)[C@H]2O)[C@](C)(O)C[C@@H](C)CN(C)[C@H](C)[C@@H](O)[C@]1(C)O , system Streptococcus pneumoniae?
> 32 µg/mL

Please tell me: MIC50 of O=C(O)c1cn(C2CC2)c2cc(N3CCNCC3)c(F)cc2c1=O , system Streptococcus pneumoniae?
16 µg/mL

Please tell me: MIC50 of CC1(C)S[C@@H]2[C@H](NC(=O)[C@H](N)c3ccc(O)cc3)C(=O)N2[C@H]1C(=O)O , system Streptococcus pneumoniae?
0.06 µg/mL

Please tell me: MIC50 of C[C@H]1NCc2cc(-c3ccc4c(=O)c(C(=O)O)cn(C5CC5)c4c3OC(F)F)ccc21 , system Streptococcus pneumoniae?
0.25 µg/mL
